Exercise: for every item that follows, state its recorded BuOH/H2O Distribution Coefficient.
# Test details: BuOH/H2O distribution coefficient
# Assay type: physicochemical
# Experimental conditions: butanol/water
Numbers only.

Batch request: BuOH/H2O Distribution Coefficient per item, same order as input.
1. CN(C(=O)CN1CCN(CC(=O)[O-])CCN(CC(=O)[O-])CCN(CC(=O)[O-])CC1)c1c(I)c(C(=O)NCCNC(=O)CN2CCN(CC(=O)[O-])CCN(CC(=O)[O-])CCN(CC(=O)[O-])CC2)c(I)c(C(=O)NCCNC(=O)CN2CCN(CC(=O)[O-])CCN(CC(=O)[O-])CCN(CC(=O)[O-])CC2)c1I.[Gd+3].[Gd+3].[Gd+3] [Example 5]
2. CC(C(=O)NCC(=O)NCCNC(=O)c1c(I)c(C(=O)NCCNC(=O)CNC(=O)C(C)N2CCN(CC(=O)[O-])CCN(CC(=O)[O-])CCN(CC(=O)[O-])CC2)c(I)c(N(C)C(=O)C(C)N2CCN(CC(=O)[O-])CCN(CC(=O)[O-])CCN(CC(=O)[O-])CC2)c1I)N1CCN(CC(=O)[O-])CCN(CC(=O)[O-])CCN(CC(=O)[O-])CC1.[Gd+3].[Gd+3].[Gd+3] (mixture of isomers) [Example 8]
3. CC(C(=O)NCCNC(=O)c1c(I)c(C(=O)NCCNC(=O)C(C)N2CCN(CC(=O)[O-])CCN(CC(=O)[O-])CCN(CC(=O)[O-])CC2)c(I)c(N(C)C(=O)C(C)N2CCN(CC(=O)[O-])CCN(CC(=O)[O-])CCN(CC(=O)[O-])CC2)c1I)N1CCN(CC(=O)[O-])CCN(CC(=O)[O-])CCN(CC(=O)[O-])CC1.[Gd+3].[Gd+3].[Gd+3] (stereo not shown) [Example 1]
4. O=C([O-])CN1CCN(CC(=O)[O-])CCN(CC(=O)NCCNC(=O)c2c(I)c(NC(=O)CN3CCN(CC(=O)[O-])CCN(CC(=O)[O-])CCN(CC(=O)[O-])CC3)c(I)c(C(=O)NCCNC(=O)CN3CCN(CC(=O)[O-])CCN(CC(=O)[O-])CCN(CC(=O)[O-])CC3)c2I)CCN(CC(=O)[O-])CC1.[Gd+3].[Gd+3].[Gd+3] [Example 7]

### Response
1: 0.00006; 2: 0.00005; 3: 0.00005; 4: 0.00005

* * *

For each entry below, report its Osmolality 200 mg (I + Gd)/ml value.
# Test details: Osmolality of the solution at 200 mg (I + Gd)/ml
# Type: physicochemical
# Experimental conditions: prior-art compounds as Na-salt
Give bare numbers, in mosmol/l.

These recorded examples may help you get a feel for the data.
[[record]]
molecule = "CC(C(=O)NCC(=O)NCCNC(=O)c1c(I)c(C(=O)NCCNC(=O)CNC(=O)C(C)N2CCN(CC(=O)[O-])CCN(CC(=O)[O-])CCN(CC(=O)[O-])CC2)c(I)c(N(C)C(=O)C(C)N2CCN(CC(=O)[O-])CCN(CC(=O)[O-])CCN(CC(=O)[O-])CC2)c1I)N1CCN(CC(=O)[O-])CCN(CC(=O)[O-])CCN(CC(=O)[O-])CC1.[Gd+3].[Gd+3].[Gd+3] (mixture of isomers)"
scale_unit = "mosmol/l"
test_value = 346

[[record]]
molecule = "CC(C(=O)NCCNC(=O)c1c(I)c(C(=O)NCCNC(=O)C(C)N2CCN(CC(=O)[O-])CCN(CC(=O)[O-])CCN(CC(=O)[O-])CC2)c(I)c(N(C)C(=O)C(C)N2CCN(CC(=O)[O-])CCN(CC(=O)[O-])CCN(CC(=O)[O-])CC2)c1I)N1CCN(CC(=O)[O-])CCN(CC(=O)[O-])CCN(CC(=O)[O-])CC1.[Gd+3].[Gd+3].[Gd+3] (stereo not shown)"
scale_unit = "mosmol/l"
test_value = 358

[[record]]
molecule = "CN(C(=O)CN1CCN(CC(=O)[O-])CCN(CC(=O)[O-])CCN(CC(=O)[O-])CC1)c1c(I)c(C(=O)NCCNC(=O)CN2CCN(CC(=O)[O-])CCN(CC(=O)[O-])CCN(CC(=O)[O-])CC2)c(I)c(C(=O)NCCNC(=O)CN2CCN(CC(=O)[O-])CCN(CC(=O)[O-])CCN(CC(=O)[O-])CC2)c1I.[Gd+3].[Gd+3].[Gd+3]"
scale_unit = "mosmol/l"
test_value = 371


# evaluate next
Please fill in: Osmolality 200 mg (I + Gd)/ml reported for O=C([O-])CN1CCN(CC(=O)[O-])CCN(CC(=O)NCCNC(=O)c2c(I)c(NC(=O)CN3CCN(CC(=O)[O-])CCN(CC(=O)[O-])CCN(CC(=O)[O-])CC3)c(I)c(C(=O)NCCNC(=O)CN3CCN(CC(=O)[O-])CCN(CC(=O)[O-])CCN(CC(=O)[O-])CC3)c2I)CCN(CC(=O)[O-])CC1.[Gd+3].[Gd+3].[Gd+3] = 334
